system.tested: T1, 4H3446-AA
T1 chain: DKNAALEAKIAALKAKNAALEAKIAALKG
assay.remarks: two-hybrid library CCmax;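 also: natural log of median RNA to DNA barcode read ratio; higher means stronger binding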
measurement.setup: mean of both orientations
// label = Met if interaction score is not less than -0.7, otherwise Not met

DKNAALEAEIAALEAENAALKAKIAALKG [4H3102-AA] ... Met

## Input Reported interaction score at or above -0.7? DEIAALEAENAALEAENAALEAEIAALKG [4H146-AA]
## Output Met

## Input Reported interaction score at or above -0.7? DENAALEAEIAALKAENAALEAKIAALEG [4H1109-AA]
## Output Met

## Input Reported interaction score at or above -0.7? DEIAALEAENAALEAKNAALKAKIAALEG [4H189-AA]
## Output Not met

## Input Reported interaction score at or above -0.7? DENAALEAKIAALKAEIAALEAENAALKG [4H1348-AA]
## Output Not met

## Input Reported interaction score at or above -0.7? DKIAALKAKNAALKAENAALEAKIAALEG [4H3029-AA]
## Output Not met

## Input Reported interaction score at or above -0.7? DENAALKAKIAALEAKNAALKAKIAALKG [4H1854-AA]
## Output Not met

## Input Reported interaction score at or above -0.7? DENAALKAKIAALEAENAALEAEIAALEG [4H1809-AA]
## Output Met

## Input Reported interaction score at or above -0.7? DKIAALKAKNAALEAKIAALKAKNAALEG [4H2991-AA]
## Output Not met

## Input Reported interaction score at or above -0.7? DKIAALKAKNAALKAKNAALKAEIAALKG [4H3066-AA]
## Output Not met
